# TARGET_ENTITY: LHRH receptor (Rattus norvegicus)
# Construct: endogenous in cells
# PROCEDURE_SUMMARY: in vitro LHRH antagonist potency (pA2) against the agonist leuprolide
# Format: cell-based
# EXPERIMENTAL_PARAMETERS: negative logarithm of the antagonist concentration which shifts the response curve produced by the agonist leuprolide to two-fold higher concentration
*1 amine or outer side, *2 acyl side, *3 side chain or, on linkers, in order; H or OH if unused. Where a SMILES comes first, the peptide text is derived from it. Side-chain parts run from the residue outwards. [ ]: non-standard residue; d: D form. The star is where a group is joined. dPhe(4-Cl) = N[C@H](Cc1ccc(Cl)cc1)C(=O)O; d2Nal = N[C@H](Cc1ccc2ccccc2c1)C(=O)O; Lys(iPr) = CC(C)NCCCC[C@H](N)C(=O)O; NMeY = CN[C@@H](Cc1ccc(O)cc1)C(=O)O; Ethylenediamine = C(CN[*:2])N[*:1]; d3Pal = N[C@H](Cc1cccnc1)C(=O)O; Nicotinoyl = O=C(c1cccnc1)*; Picolinoyl = O=C(c1ccccn1)*; 2Furoyl = O=C(c1ccco1)*; CO = O=C([*:1])[*:2]; X2 = O=C(c1ccoc1)*; GABA = NCCCC(=O)O; βAla = NCCC(=O)O
Reported Kb values follow for various molecules

MOLECULE: CC(=O)N[C@H](Cc1ccc2ccccc2c1)C(=O)N[C@H](Cc1ccc(Cl)cc1)C(=O)N[C@H](Cc1cccnc1)C(=O)N[C@@H](CO)C(=O)N(C)[C@@H](Cc1ccc(O)cc1)C(=O)N[C@H](CCCCNC(=O)CCNC(=O)c1cccnc1)C(=O)N[C@@H](CC(C)C)C(=O)N[C@@H](CCCCNC(C)C)C(=O)N1CCC[C@H]1C(=O)N[C@H](C)C(N)=O [Example 4a] (Ac-[d2Nal][dPhe(4-Cl)][d3Pal]S[NMeY][dK]([βAla-Nicotinoyl])L[Lys(iPr)]P[dA]-NH2)
Kb [pM]: 5.62

MOLECULE: CC(=O)N[C@H](Cc1ccc2ccccc2c1)C(=O)N[C@H](Cc1ccc(Cl)cc1)C(=O)N[C@H](Cc1cccnc1)C(=O)N[C@@H](CO)C(=O)N(C)[C@@H](Cc1ccc(O)cc1)C(=O)N[C@H](CCCCNC(=O)NCCNC(=O)c1ccco1)C(=O)N[C@@H](CC(C)C)C(=O)N[C@@H](CCCNC(=N)N)C(=O)N1CCC[C@H]1C(=O)N[C@H](C)C(N)=O [Example 36] (Ac-[d2Nal][dPhe(4-Cl)][d3Pal]S[NMeY][dK]([CO-Ethylenediamine-2Furoyl])LRP[dA]-NH2)
Kb [pM]: 10.7

MOLECULE: CC(=O)N[C@H](Cc1ccc2ccccc2c1)C(=O)N[C@H](Cc1ccc(Cl)cc1)C(=O)N[C@H](Cc1cccnc1)C(=O)N[C@@H](CO)C(=O)N(C)[C@@H](Cc1ccc(O)cc1)C(=O)N[C@H](CCCCNC(=O)CCCNC(=O)CNC(=O)c1ccco1)C(=O)N[C@@H](CC(C)C)C(=O)N[C@@H](CCCCNC(C)C)C(=O)N1CCC[C@H]1C(=O)N[C@H](C)C(N)=O [Example 57e] (Ac-[d2Nal][dPhe(4-Cl)][d3Pal]S[NMeY][dK]([GABA-Gly-2Furoyl])L[Lys(iPr)]P[dA]-NH2)
Kb [pM]: 12

MOLECULE: CC(=O)N[C@H](Cc1ccc2ccccc2c1)C(=O)N[C@H](Cc1ccc(Cl)cc1)C(=O)N[C@H](Cc1cccnc1)C(=O)N[C@@H](CO)C(=O)N(C)[C@@H](Cc1ccc(O)cc1)C(=O)N[C@H](CCCCNC(=O)[C@@H](CO)NC(=O)c1ccoc1)C(=O)N[C@@H](CC(C)C)C(=O)N[C@@H](CCCNC(=N)N)C(=O)N1CCC[C@H]1C(=O)N[C@H](C)C(N)=O [Example 65b] (Ac-[d2Nal][dPhe(4-Cl)][d3Pal]S[NMeY][dK]([dS-X2])LRP[dA]-NH2)
Kb [pM]: 2.29

MOLECULE: CC(=O)N[C@H](Cc1ccc2ccccc2c1)C(=O)N[C@H](Cc1ccc(Cl)cc1)C(=O)N[C@H](Cc1cccnc1)C(=O)N[C@@H](CO)C(=O)N(C)[C@@H](Cc1ccc(O)cc1)C(=O)N[C@H](CCCCNC(=O)CNC(=O)c1ccccn1)C(=O)N[C@@H](CC(C)C)C(=O)N[C@@H](CCCNC(=N)N)C(=O)N1CCC[C@H]1C(=O)N[C@H](C)C(N)=O [Example 48a] (Ac-[d2Nal][dPhe(4-Cl)][d3Pal]S[NMeY][dK]([Gly-Picolinoyl])LRP[dA]-NH2)
Kb [pM]: 7.94

###

Reported Kb values follow for various molecules
# TARGET_ENTITY: LHRH receptor (Rattus norvegicus)
# Construct: endogenous in cells
# Sequence (P30969 1-327): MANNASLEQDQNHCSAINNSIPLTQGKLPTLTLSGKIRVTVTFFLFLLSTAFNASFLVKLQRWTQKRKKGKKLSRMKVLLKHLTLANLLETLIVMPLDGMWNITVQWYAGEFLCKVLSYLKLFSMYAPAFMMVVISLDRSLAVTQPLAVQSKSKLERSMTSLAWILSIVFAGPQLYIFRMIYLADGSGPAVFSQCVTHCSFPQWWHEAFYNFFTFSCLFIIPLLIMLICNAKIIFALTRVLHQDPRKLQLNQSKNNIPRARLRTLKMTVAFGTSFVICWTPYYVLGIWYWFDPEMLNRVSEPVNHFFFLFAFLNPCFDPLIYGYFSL
# PROCEDURE_SUMMARY: in vitro LHRH antagonist potency (pA2) against the agonist leuprolide
# Type: cell-based
# EXPERIMENTAL_PARAMETERS: negative logarithm of the antagonist concentration which shifts the response curve produced by the agonist leuprolide to two-fold higher concentration
# Method: Representative compounds of the present invention were evaluated in in vitro tests for receptor binding (pKI) and for LHRH antagonist potency (pA2). The tests employed the methods detailed in F. Haviv, et al., J. Med. Chem., 32: 2340-2344 (1989). […]
Where a SMILES comes first, the peptide text is derived from it. Side-chain parts run from the residue outwards. [ ]: non-standard residue; d: D form. The star is where a group is joined. Shikimoyl = O=C(C1=C[C@@H](O)[C@@H](O)[C@H](O)C1)*; Quinoline3carbonyl = O=C(c1cnc2ccccc2c1)*; dPhe(4-Cl) = N[C@H](Cc1ccc(Cl)cc1)C(=O)O; d2Nal = N[C@H](Cc1ccc2ccccc2c1)C(=O)O; NMeY = CN[C@@H](Cc1ccc(O)cc1)C(=O)O; d3Pal = N[C@H](Cc1cccnc1)C(=O)O; βAla = NCCC(=O)O

MOLECULE: CC(=O)N[C@H](Cc1ccc2ccccc2c1)C(=O)N[C@H](Cc1ccc(Cl)cc1)C(=O)N[C@H](Cc1cccnc1)C(=O)N[C@@H](CO)C(=O)N(C)[C@@H](Cc1ccc(O)cc1)C(=O)N[C@H](CCCCNC(=O)CCNC(=O)C1=C[C@@H](O)[C@@H](O)[C@H](O)C1)C(=O)N[C@@H](CC(C)C)C(=O)N[C@@H](CCCNC(=N)N)C(=O)N1CCC[C@H]1C(=O)N[C@H](C)C(N)=O [Example 48g] (Ac-[d2Nal][dPhe(4-Cl)][d3Pal]S[NMeY][dK]([βAla-Shikimoyl])LRP[dA]-NH2)
TARGET_ENTITY: LHRH receptor (Rattus norvegicus)
SCALE_UNIT: nM
Kb: 0.0126
//
MOLECULE: CC(=O)N[C@H](Cc1ccc2ccccc2c1)C(=O)N[C@H](Cc1ccc(Cl)cc1)C(=O)N[C@H](Cc1cccnc1)C(=O)N[C@@H](CO)C(=O)N(C)[C@@H](Cc1ccc(O)cc1)C(=O)N[C@H](CCCCNC(=O)[C@@H](CO)NC(=O)c1cnc2ccccc2c1)C(=O)N[C@@H](CC(C)C)C(=O)N[C@@H](CCCNC(=N)N)C(=O)N1CCC[C@H]1C(=O)N[C@H](C)C(N)=O [Example 50d] (Ac-[d2Nal][dPhe(4-Cl)][d3Pal]S[NMeY][dK]([dS-Quinoline3carbonyl])LRP[dA]-NH2)
TARGET_ENTITY: LHRH receptor (Rattus norvegicus)
SCALE_UNIT: nM
Kb: 0.0479

###

Reported Kb values follow for various compounds
# TARGET_ENTITY: LHRH receptor (Rattus norvegicus)
# Construct: endogenous in cells
# Sequence (P30969 1-327): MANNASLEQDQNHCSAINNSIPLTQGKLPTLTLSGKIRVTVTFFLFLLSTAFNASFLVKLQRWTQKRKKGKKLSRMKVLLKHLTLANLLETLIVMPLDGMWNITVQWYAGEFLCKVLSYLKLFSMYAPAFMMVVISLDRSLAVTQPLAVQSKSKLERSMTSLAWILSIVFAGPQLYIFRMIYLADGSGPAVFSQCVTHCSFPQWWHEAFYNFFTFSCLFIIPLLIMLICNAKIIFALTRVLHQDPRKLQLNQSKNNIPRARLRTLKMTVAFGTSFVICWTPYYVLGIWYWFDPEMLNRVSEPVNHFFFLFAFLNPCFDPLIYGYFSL
# PROCEDURE_SUMMARY: in vitro LHRH antagonist potency (pA2) against the agonist leuprolide
# Format: cell-based
# EXPERIMENTAL_PARAMETERS: negative logarithm of the antagonist concentration which shifts the response curve produced by the agonist leuprolide to two-fold higher concentration
Where a SMILES comes first, the peptide text is derived from it. Side-chain parts run from the residue outwards. [ ]: non-standard residue; d: D form. The star is where a group is joined. NMePhe(4-NH(5-NH2-Trz-3-yl)) = CN[C@@H](Cc1ccc(Nc2n[nH]c(N)n2)cc1)C(=O)O; dPhe(4-Cl) = N[C@H](Cc1ccc(Cl)cc1)C(=O)O; d2Nal = N[C@H](Cc1ccc2ccccc2c1)C(=O)O; Lys(iPr) = CC(C)NCCCC[C@H](N)C(=O)O; NMeY = CN[C@@H](Cc1ccc(O)cc1)C(=O)O; Pyrazinecarbonyl = O=C(c1cnccn1)*; d3Pal = N[C@H](Cc1cccnc1)C(=O)O; Salicyloyl = O=C(c1ccccc1O)*; Nicotinoyl = O=C(c1cccnc1)*; dOrn = NCCC[C@@H](N)C(=O)O; X2 = O=C(c1ccoc1)*; azaGly = NNC(=O)O
MEASURED_METRIC: Kb

COMPOUND: CC(=O)N[C@H](Cc1ccc2ccccc2c1)C(=O)N[C@H](Cc1ccc(Cl)cc1)C(=O)N[C@H](Cc1cccnc1)C(=O)N[C@@H](CO)C(=O)N(C)[C@@H](Cc1ccc(O)cc1)C(=O)N[C@H](CCCCNC(=O)[C@@H](CO)NC(=O)c1cnccn1)C(=O)N[C@@H](CC(C)C)C(=O)N[C@@H](CCCNC(=N)N)C(=O)N1CCC[C@H]1C(=O)N[C@H](C)C(N)=O [Example 50g] (Ac-[d2Nal][dPhe(4-Cl)][d3Pal]S[NMeY][dK]([dS-Pyrazinecarbonyl])LRP[dA]-NH2)
RECORDED_MEASUREMENT: 0.0126 nM

COMPOUND: CC(=O)N[C@H](Cc1ccc2ccccc2c1)C(=O)N[C@H](Cc1ccc(Cl)cc1)C(=O)N[C@H](Cc1cccnc1)C(=O)N[C@@H](CO)C(=O)N(C)[C@@H](Cc1ccc(O)cc1)C(=O)N[C@H](CCCNC(=O)[C@@H](CO)NC(=O)c1cccnc1)C(=O)N[C@@H](CC(C)C)C(=O)N[C@@H](CCCNC(=N)N)C(=O)N1CCC[C@H]1C(=O)N[C@H](C)C(N)=O [Example 49b] (Ac-[d2Nal][dPhe(4-Cl)][d3Pal]S[NMeY][dOrn]([dS-Nicotinoyl])LRP[dA]-NH2)
RECORDED_MEASUREMENT: 0.0155 nM

COMPOUND: CC(=O)N[C@H](Cc1ccc2ccccc2c1)C(=O)N[C@H](Cc1ccc(Cl)cc1)C(=O)N[C@H](Cc1cccnc1)C(=O)N[C@@H](CO)C(=O)N(C)[C@@H](Cc1ccc(O)cc1)C(=O)N[C@H](CCCCNC(=O)CNC(=O)c1ccccc1O)C(=O)N[C@@H](CC(C)C)C(=O)N[C@@H](CCCCNC(C)C)C(=O)N1CCC[C@H]1C(=O)N[C@H](C)C(N)=O [Example 19b] (Ac-[d2Nal][dPhe(4-Cl)][d3Pal]S[NMeY][dK]([Gly-Salicyloyl])L[Lys(iPr)]P[dA]-NH2)
RECORDED_MEASUREMENT: 0.00661 nM

COMPOUND: CC(=O)N[C@H](Cc1ccc2ccccc2c1)C(=O)N[C@H](Cc1ccc(Cl)cc1)C(=O)N[C@H](Cc1cccnc1)C(=O)N[C@@H](CO)C(=O)N(C)[C@@H](Cc1ccc(Nc2n[nH]c(N)n2)cc1)C(=O)N[C@H](CCCCNC(=O)NNC(=O)c1cccnc1)C(=O)N[C@@H](CC(C)C)C(=O)N[C@@H](CCCCNC(C)C)C(=O)N1CCC[C@H]1C(=O)N[C@H](C)C(N)=O [Example 46] (Ac-[d2Nal][dPhe(4-Cl)][d3Pal]S[NMePhe(4-NH(5-NH2-Trz-3-yl))][dK]([azaGly-Nicotinoyl])L[Lys(iPr)]P[dA]-NH2)
RECORDED_MEASUREMENT: 0.011 nM

COMPOUND: CC(=O)N[C@H](Cc1ccc2ccccc2c1)C(=O)N[C@H](Cc1ccc(Cl)cc1)C(=O)N[C@H](Cc1cccnc1)C(=O)N[C@@H](CO)C(=O)N(C)[C@@H](Cc1ccc(O)cc1)C(=O)N[C@H](CCCCNC(=O)CNC(=O)c1ccoc1)C(=O)N[C@@H](CC(C)C)C(=O)N[C@@H](CCCNC(=N)N)C(=O)N1CCC[C@H]1C(=O)N[C@H](C)C(N)=O [Example 51a] (Ac-[d2Nal][dPhe(4-Cl)][d3Pal]S[NMeY][dK]([Gly-X2])LRP[dA]-NH2)
RECORDED_MEASUREMENT: 0.011 nM
